Origin of values: PubChem BioAssay (NCI)

system: KM12 colon; assay: NCI tumour cell line growth inhibition, 48 h; in the data active = GI50 below about 0.43 µM; inactive = the rest
Respond with a class label; see active, inactive

Check out these entries, answers already filled in.
1. Cc1cc([N+](=O)[O-])c(NS(=O)(=O)c2cccc(C(=O)O)c2)cc1-c1cccnc1: inactive
2. Cc1cc(NCCCN(C)C)c2ccc3c(ccc4c(NCCCN(C)C)cc(C)nc43)c2n1: active
3. CC1(C)C2CCC13C(=O)C1OC3(C2)C2C(=O)c3ccccc3C(=O)C12 (stereo not given): inactive
4. COc1ccc(CCN2CC=Cn3c2nc2ccccc2c3=O)cc1: active
5. Cc1[nH]c2ccccc2c1CCCO: inactive

[ask] Record lookup: outcome of this test for `C[C@@]12CCC(=O)c3coc(c31)C(=O)c1cc3c(cc12)C(=O)C=CC3=O` ?
[reply] inactive

[ask] Record lookup: outcome of this test for `C=C(C)[C@@H]1CC[C@]2(C(=O)N[C@H](CO)Cc3ccccc3)CC[C@]3(C)[C@H](CC[C@@H]4[C@@]5(C)CCCNC(C)(C)[C@@H]5CC[C@]43C)[C@@H]12` ?
[reply] inactive

[ask] Record lookup: outcome of this test for `O=C(Nc1ccc(Br)cc1F)c1cc(I)ccc1O` ?
[reply] inactive

[ask] Record lookup: outcome of this test for `COc1cc2nc(N3CCCC3)nc(NCc3ccccc3)c2cc1OC` ?
[reply] inactive

* * *

test system: LOX IMVI melanoma; assay: NCI tumour cell line growth inhibition, 48 h
Experimental Readout: TGI

Before answering, review these 3 worked examples.
1) CCN(CC)N1C(=O)[N+](CC)(CC)N=C1[O-]: > 100 µM
2) COC(=O)C1(Cc2ccc3c(c2)CCC3)Cc2ccccc2C1O (centres undefined): 34 µM
3) CN(C)c1ccc(/C(F)=C(F)/C(F)=C(F)/C(F)=C(\F)c2ccc(Br)cc2)cc1: > 100 µM

Data point: CCOC(=O)CCC(NC(=O)OCc1ccccc1)C(=O)NC(CCC(=O)OCC)C(=O)NC(CCC(=O)OCC)C(=O)NC(CCC(=O)OCC)C(=O)NC(CCC(=O)OCC)C(=O)NC(CCC(=O)OCC)C(=O)NC(CCC(=O)OCC)C(=O)OCC (centres undefined) ; TGI = > 100 µM

Data point: Cc1cn(C2CC3C(COCN3O)O2)c(=O)[nH]c1=O (centres undefined) ; TGI = > 100 µM

Data point: O=C1C=CC(=O)C2=C1[C@@H](O)C1CC=CC3C(=O)O[C@@H]2C31 (some centres undefined) ; TGI = 50.1 µM

Data point: `COc1ccc2c(c1)c(CC(=O)[Se]C)c(C)n2C(=O)c1ccc(Cl)cc1` ; TGI = > 0.528 µM

Data point: `C/C(=N/NC(=S)N1CCCCC1)c1ccccc1O` ; TGI = > 31.6 µM

Data point: `NS(=O)(=O)c1ccc(/C=C/c2ccc(F)cc2)cc1` ; TGI = > 100 µM

* * *

system: HCC-2998 colon; test: NCI tumour cell line growth inhibition, 48 h
Recorded TGI values for a group of molecules are listed next.
Provide only the numeric value, understood in µM.

Before answering, review these 5 worked examples.
1. C=C(C(N)=O)c1ccc([N+](=O)[O-])o1: 33.6
2. Cc1c(C(=O)Nc2ccccc2)sc2ncn(Cc3cccc(Cl)c3)c(=O)c12: 67.8
3. CC(=O)NCCC1CN(C(=O)/C=C/I)c2ccccc21 (stereo not given): 29.6
4. COc1ccc2c3c1OC1C(=O)C=CC4(CC2)N(C)CCC314 (stereo not given): 27.4
5. N#CC1(C#N)NC(c2cccs2)C(C#N)(C#N)NC1c1cccs1 (stereo not given): 93.3

The molecule `CN1CCN(C(=O)C(C)(C)c2ccc(C(=O)Nc3cn4cc(-c5ccncc5)ccc4n3)cc2)CC1` , when measured on HCC-2998 colon, yielded TGI of 9.7

The molecule O=C1OCC2=C1C(c1cccc(Cl)c1)c1cc3c(cc1N2CCO)OCCO3 (stereo not given) , when measured on HCC-2998 colon, yielded TGI of 2.91

* * *

tested on: UACC-62 melanoma; experiment: NCI tumour cell line growth inhibition, 48 h
Recorded TGI values for a group of compounds are listed next.

Before answering, review these 10 worked examples.
1) C/C=C/c1cc(=O)c([C@@H]2OC(=O)c3cc(OC)cc(OC)c32)co1: > 100 µM
2) CCOP(=O)(/C=C\n1cc(C)c(=O)[nH]c1=O)OCC: > 100 µM
3) NNC(=O)C1CCC(=O)N1S(=O)(=O)c1ccccc1 (centres undefined): > 100 µM
4) CN(C)c1nc(N)nc(CS)n1: > 100 µM
5) C=Cc1cncc(C#N)c1CCc1c(C#N)cncc1C=C: > 100 µM
6) C=C1CC2OC(=O)C(=C)C2C(O)C2C(=C)CCC12 (centres undefined): 12.8 µM
7) Cc1cccc(Nc2nn3c(=O)c4c5c(sc4nc3s2)CCCC5)c1: 5.92 µM
8) CSc1nnc(CCC(=O)Nc2c(C)cccc2C)o1: > 100 µM
9) O=C1NC(Nc2ccccc2)=NC(C(F)(F)F)(C(F)(F)F)N1: > 100 µM
10) O=C1C(Cl)=C(OCCCl)C(=O)c2c(O)ccc(O)c21: 14 µM

Data point: `O=C1NNC2(C(=O)N1)c1ccccc1-c1ccccc12` ; TGI = > 10 µM

Data point: `COc1c(O)c2c3c(cc(C)cc3c1C(C)C)OC2` ; TGI = > 100 µM

Data point: `COC(OC)[C@@H]1OC[C@H](n2cnc3c(N)ncnc32)[C@H]1O` ; TGI = > 100 µM

Data point: `COc1ccc(/C=C/c2cc(OC)c(OC)c(OC)c2)cc1` ; TGI = > 100 µM

Data point: `O=[N+]([O-])c1ccc(-n2nnc(C3=NCCN3)c2-c2ccccc2)cc1` ; TGI = > 100 µM

Data point: `COC(=O)c1cc(=O)[nH]c(=O)[nH]1` ; TGI = > 100 µM

* * *

test system: NCI-H23 lung; assay: NCI tumour cell line growth inhibition, 48 h
Recorded TGI values for a group of molecules are listed next.

Before answering, review these 3 worked examples.
1) C/C(O)=C(/C=N/C(=S)Nc1ccc(S(N)(=O)=O)cc1)C(=O)Nc1ccccc1C: > 100 µM
2) Cc1cn(C2CC3C(COCN3O)O2)c(=O)[nH]c1=O (stereo unspecified): > 100 µM
3) O=C1NNC2(C(=O)N1)c1ccccc1-c1ccccc12: > 10 µM

Data point: CC(=O)Oc1cc2c(cc1OC(C)=O)OCC(c1ccc(C)cc1)C2 (stereo unspecified) ; TGI = 32.1 µM

Data point: `C/C(=N/NC(=S)N1CCCCC1)c1ccccc1O` ; TGI = > 31.6 µM

Data point: Cc1ccc(OCC2OC(n3cnc4nc(N)nc(Cl)c43)CC2Oc2ccc(C)cc2)cc1 (stereo unspecified) ; TGI = 36.9 µM

Data point: CC1C(=O)N(c2ccccc2)NC12CCCc1ccccc12 (stereo unspecified) ; TGI = > 100 µM

Data point: CN(C)CCN1C(=O)c2c(c3c4ccccc4n4c3c3c2c2ccccc2n3C2CC(O)C(O)C4(C)O2)C1=O (stereo unspecified) ; TGI = 9.75 µM

Data point: C[C@H](NC(=O)C(Cc1ccccc1)(Cc1ccc(O)cn1)NC(=O)c1ccccc1)c1ccccc1 (stereo partly specified) ; TGI = 50.5 µM

Data point: `Cc1nc(Nc2ccccc2)sc1C(=O)CC(=O)C(=O)Nc1c(C(C)C)cccc1C(C)C` ; TGI = > 100 µM

Data point: CC(CN(C)C)/C(=N\Nc1ccccc1)c1ccccc1 (stereo unspecified) ; TGI = 23.4 µM

* * *

tested on: MCF7 breast; experiment: NCI tumour cell line growth inhibition, 48 h; in the data active means GI50 below about 0.43 µM; inactive means the rest
Respond with a class label; see active, inactive

Check out these entries, answers already filled in.
1. O=C1c2cc3c(cc2[C@@H]2[C@H]1c1ccc([N+](=O)[O-])cc1C(=O)N2CCCBr)OCO3: active
2. CCCCOC(=O)N1CCN(/[N+]([O-])=N/Oc2ccc([N+](=O)[O-])cc2[N+](=O)[O-])CC1: inactive

Now examine the next entry.
[ask] Record lookup: outcome of this test for `COc1cc(C(=O)c2c(-c3ccccc3)oc3c(OC)cccc23)cc(OC)c1OC` ?
[reply] active

* * *

system: CAKI-1 renal; test: NCI tumour cell line growth inhibition, 48 h
Recorded TGI values for a group of compounds are listed next.

Before answering, review these 5 worked examples.
1) Cc1ccc(C(N)=O)cc1N=NN(C)C: > 100 µM
2) COc1ccc(/C=C/c2cc(OC)c(OC)c(OC)c2)cc1: 98.4 µM
3) CC(C)=NN/C(=N\S(=O)(=O)c1ccc(Oc2cccc(Cl)c2C#N)cc1)Nc1ccc(Cl)cc1: > 100 µM
4) COc1cc2ccc(=O)oc2cc1O: 401 µM
5) COc1cc2c(cc1OC)[C@H](C)N1CCc3cc(OC)c(OC)cc3[C@@H]1C2: > 100 µM

Data point: `CCCCCCCC/C=C\CCCCCCC/C=C1\C[C@](/C=C/C(=O)OC)(CO)OC1=O` ; TGI = 4.15 µM

Data point: `COC(=O)c1cc(=O)[nH]c(=O)[nH]1` ; TGI = > 100 µM

Data point: `Cc1nc(Nc2ccccc2)sc1C(=O)CC(=O)C(=O)Nc1c(C(C)C)cccc1C(C)C` ; TGI = > 100 µM

Data point: `O=C1/C(=C/c2ccccc2)CN(C(=O)CCN2CCOCC2)C/C1=C\c1ccccc1` ; TGI = 23 µM

Data point: COC(C(=O)NN)c1ccccc1 (stereo not drawn) ; TGI = > 100 µM

Data point: NC(=O)N/N=C1/CCC(O)CC1CC(=O)O (stereo not drawn) ; TGI = > 100 µM

Data point: N#CC1(C#N)NC(c2cccs2)C(C#N)(C#N)NC1c1cccs1 (stereo not drawn) ; TGI = > 100 µM

Data point: `O=C1Nc2ccc(Br)cc2C1=Nc1cccnc1` ; TGI = > 100 µM
